measured endpoint: melting point

Take a look at these entries with their results.
COCCOc1ccc(CCCOC(=O)NS(=O)(=O)c2ccc(C)cc2)c(Oc2ncc(C(F)(F)F)cc2Cl)c1.O (hydrate or solvate) [Example 30]; 118 to 120 °C
CCCCCS(=O)(=O)NC(=O)CCc1cc(C(C)(C)C)nn1Cc1ccc(C(F)(F)F)cc1Cl [Example 122]; 136 to 137 °C
CCCCCS(=O)(=O)NC(=O)OCc1ccc(OCCCC)cc1Oc1ncc(C(F)(F)F)cc1Cl [Example 62]; 124.5 to 125.5 °C

Input line: Look at this molecule and give its reported melting point. COCCOc1ccc(/C=C/C(=O)NS(=O)(=O)c2ccc(C(F)(F)F)cc2)c(Oc2ncc(C(F)(F)F)cc2Cl)c1 [Example 234]
Output line: 186.3 to 186.5 °C
